ASSAY_TARGET: human GPR40 receptor (Homo sapiens)
Sequence (O14842 whole entry): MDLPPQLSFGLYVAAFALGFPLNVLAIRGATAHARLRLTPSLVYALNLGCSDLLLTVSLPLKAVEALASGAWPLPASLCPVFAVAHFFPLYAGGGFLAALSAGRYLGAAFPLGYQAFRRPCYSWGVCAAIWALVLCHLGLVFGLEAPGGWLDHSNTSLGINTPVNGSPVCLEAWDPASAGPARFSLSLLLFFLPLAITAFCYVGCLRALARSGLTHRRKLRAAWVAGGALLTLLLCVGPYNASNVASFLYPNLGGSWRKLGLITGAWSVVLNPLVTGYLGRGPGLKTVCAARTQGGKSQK
TEST: IP1 accumulation measurements using the IPOne assay system
Assay type: cell-based
ASSAY_CONDITIONS: IP1 accumulation (IPOne HTRF), 1 hour stimulation; 1321N1 cells stably expressing human GPR40; read-out: EC50 values on GPR40 determined as described in (B)
PARAMETER: pEC50
Scale: pEC50 equals -log10([C]), with [C] in mol/L.

Solved entries (count: 6):
> print(dat)
                                   compound                         assay.target  endpoint.result
1  CC1(C)CCCO[C@H]1c1cccc2c1CC[C@H]2Oc1ccc2c(c1)OC[C@H]2CC(=O)O (single isomer, unassigned)  human GPR40 receptor (Homo sapiens)             6.75
2  O=C(O)C[C@@H]1COc2cc(O[C@@H]3CCc4c3ccc(F)c4Cl)ccc21  human GPR40 receptor (Homo sapiens)             7.60
3  O=C(O)CC1COc2cc(O[C@@H]3CCc4c(C5CCOCC5)cccc43)ccc21 (some centres unmarked)  human GPR40 receptor (Homo sapiens)             5.57
4  COc1cc(C)c(-c2cccc3c2CC[C@H]3Oc2ccc3c(c2)OC[C@H]3CC(=O)O)c(C)c1  human GPR40 receptor (Homo sapiens)             6.49
5  CC1OC(c2cccc3c2CC[C@H]3Oc2ccc3c(c2)OC[C@H]3CC(=O)O)C1(C)C (single isomer, unassigned) [Example 41]  human GPR40 receptor (Homo sapiens)             6.49
6  N#Cc1cccnc1-c1cccc2c1CC[C@H]2Oc1ccc2c(c1)OC[C@H]2CC(=O)O  human GPR40 receptor (Homo sapiens)             6.01

# pEC50 (compound: O=C(O)C[C@@H]1COc2cc(O[C@@H]3CCc4c(-c5ccccc5C(F)(F)C(F)(F)F)cccc43)ccc21 ) is 8.15

# pEC50 (compound: CO[C@H](c1cccc2c1CC[C@H]2Oc1ccc2c(c1)OC[C@H]2CC(=O)O)C(C)(C)C (single isomer, unassigned) ) is 7.85

The reported numbers originate from patent US20120302566A1.
